assay: stimulators of nuclear beta-catenin in C2C12, primary screen, imaging, WNT3A-conditioned medium, mouse C2C12, NPC library (AID 1117326); conditions: at 10 µM, stronger effect = higher value; also: reference of the scale not given here
Examples of compounds with documented nuclear beta-catenin stimulation follow.
Kindly provide the numeric value in % only, without the unit symbol.

- COMPOUND: "CCO[C@H](Cc1ccc(OCCc2ccc(OS(C)(=O)=O)cc2)cc1)C(=O)O"
  PARAMETER MEASURED: "nuclear beta-catenin stimulation"
  RECORDED RESULT: 1.2
- COMPOUND: "Nc1ccn(C[C@@H](CO)OCP(=O)(O)O)c(=O)n1"
  PARAMETER MEASURED: "nuclear beta-catenin stimulation"
  RECORDED RESULT: 1.2
- COMPOUND: "CN(N=O)C(=O)N[C@@H]1[C@@H](O)[C@H](O)[C@@H](CO)O[C@@H]1O"
  PARAMETER MEASURED: "nuclear beta-catenin stimulation"
  RECORDED RESULT: 0.9

Input line: Given "CC(C)Cn1cnc2c1c(=O)n(C)c(=O)n2C" , state its recorded nuclear beta-catenin stimulation.
Output line: 1.9

Input line: For the compound COC(=O)C(c1ccccc1Cl)N1CCc2sccc2C1 (stereo unspecified) , what nuclear beta-catenin stimulation is on record?
Output line: 0.3

Input line: Recorded nuclear beta-catenin stimulation for "CC(C)C[C@H](NC(=O)[C@H](Cc1ccccc1)NC(=O)c1cnccn1)B(O)O" , please?
Output line: 132

Input line: Which nuclear beta-catenin stimulation value is on record for CCOCC(O)COc1ccc(NC(=O)CC[S+](C)C)cc1 (stereo unspecified) ?
Output line: -0.1

Input line: Which nuclear beta-catenin stimulation is listed for "CC(=O)NC(=O)c1ccccc1O" ?
Output line: 4.6

Input line: // lookup nuclear beta-catenin stimulation for "CN(C(=O)c1c(O)c2ccccc2n(C)c1=O)c1ccccc1"
Output line: 0.7

Input line: Returns the measured nuclear beta-catenin stimulation for the input compound. Input: "NC(N)=NC(N)=NCCc1ccccc1"
Output line: 0

Input line: What measured nuclear beta-catenin stimulation goes with "CC1(C)Oc2ccc(C#N)cc2[C@@H](N2CCCC2=O)[C@@H]1O" ?
Output line: 0.9

====

test: HTB85 osteosarcoma cell growth inhibition, synergistic combos for chromothripsis tumors, BGB or cisplatin IC20 combos (AID 1671453); settings: HTB85 osteosarcoma cells, drug combinations, measured here: with cisplatin IC20, at 5 µM, stronger effect = higher value;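 also: cells exposed for 96 hours before readout; 0% = vehicle DMSO and 100% = high DMSO killing control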
Listing of recorded inhibition by entry.
The reply should be a number in %, with the unit left off.

Use the examples below as a reference point.
- COMPOUND: "Cc1ccc2nc(N)[nH]c(=O)c2c1Sc1ccncc1"
  inhibition / %: 0.276
- COMPOUND: "CC1(C(=O)O)CCC2(C)CCC3(C)C(=CC(=O)C4C5(C)CCC(OC(=O)CCC(=O)O)C(C)(C)C5CCC43C)C2C1 (configuration not stated)"
  inhibition / %: -11
- COMPOUND: "N=C(N=C(N)N)N1CCOCC1"
  inhibition / %: -17.8
- COMPOUND: "CN1C[C@@H]2C[C@H]1CN2c1cc2c(cc1F)c(=O)c(C(=O)O)cn2C1CC1"
  inhibition / %: -32.6
- COMPOUND: "CN1CCN(c2c(F)cc3c(=O)c(C(=O)O)cn(CCF)c3c2F)CC1"
  inhibition / %: -2.52
- COMPOUND: "O=C(CCCCCCC(=O)Nc1ccccc1)NO"
  inhibition / %: 89.9

Input line: Record request: inhibition value, item "Nc1ccc2cc3ccc(N)cc3nc2c1"
Output line: 99.3

Input line: Value lookup for inhibition; key = COC1C(OC(N)=O)C(O)C(Oc2ccc3c(O)c(NC(=O)c4ccc(O)c(CC=C(C)C)c4)c(=O)oc3c2C)OC1(C)C (configuration not stated)
Output line: -20.2

Input line: GET /values?readout=inhibition&item= CNC1CCCN(c2c(F)cc3c(=O)c(C(=O)O)cn(C4CC4)c3c2OC)C1 (configuration not stated)
Output line: -18.5
